test system: SARS-CoV-2; experiment: microbe, parasite or virus in culture; type: cell-based; conditions: Severe acute respiratory syndrome coronavirus 2, VeroE6/TMPRSS2, 72 h, 50% SARS-CoV-2 infected cell death inhibitory concentration; VeroE6/TMPRSS2 cells, 3 days culture, CellTiter-Glo 2.0
pEC50: −log10 of the molar value.
endpoint: pEC50

# compound, endpoint, recorded number
rows = [
    ("Cn1cc2cc(Nc3nc(=O)n(-c4cncc(Cl)c4)c(=O)n3Cc3ccc(F)c(C#N)c3)ccc2n1", "pEC50", 6.31),
    ("O=c1[nH]cccc1Cn1c(=O)nc(N2Cc3ccccc3C2)n(Cc2cc(F)c(F)c(F)c2)c1=O", "pEC50", 5.19),
    ("Cn1cc2cc(Nc3nc(=O)n(-c4cncc5c4COC5)c(=O)n3Cc3cc(Cl)c(F)cc3F)c(Cl)cc2n1", "pEC50", 6.17),
    ("COc1ccc(Nc2nc(=O)n(Cc3cc(-c4ccccc4)c[nH]c3=O)c(=O)n2Cc2cc(F)c(F)c(F)c2)cc1", "pEC50", 5.87),
    ("COc1ccc(Nc2nc(=O)n(Cc3ncc(C)s3)c(=O)n2Cc2cc(F)c(F)c(F)c2)cc1", "pEC50", 5.10),
    ("Cn1cc2cc(Nc3nc(=O)n(-c4cncc5ccccc45)c(=O)n3Cc3ccc(F)c(C#N)c3)ccc2n1", "pEC50", 6.51),
    ("N#Cc1cc(Cn2c(Nc3ccc4nn(CC(F)F)cc4c3)nc(=O)n(-c3cncc(Cl)c3)c2=O)ccc1F", "pEC50", 6.06),
    ("CC[C@@H](Nc1nc(=O)n(Cc2ccc[nH]c2=O)c(=O)n1Cc1cc(F)c(F)c(F)c1)C(F)(F)F", "pEC50", 4.54),
    ("Cc1cncc(-n2c(=O)nc(Nc3cc4cn(C)nc4cc3Cl)n(Cc3ccc(F)c(C4CC4)c3)c2=O)c1", "pEC50", 5.09),
    ("Cc1cncc(-n2c(=O)nc(Nc3ccc4nn(C)cc4c3)n(Cc3cc(C#N)ccc3C)c2=O)c1", "pEC50", 6.66),
    ("COc1ccc(Nc2nc(=O)n(Cc3cscn3)c(=O)n2Cc2cc(F)c(F)c(F)c2)cc1", "pEC50", 5.10),
    ("Cc1cncc(-n2c(=O)nc(Nc3ccc4nn(C)cc4c3)n(Cc3ccc(F)c(C#N)c3)c2=O)c1", "pEC50", 6.57),
    ("CNc1nc2cc(Cl)c(Nc3nc(=O)n(-c4cncc(C)c4)c(=O)n3Cc3cc(C#N)ccc3Cl)cc2o1", "pEC50", 6.12),
    ("Cc1cncc(-n2c(=O)nc(N3CC4CCC3CO4)n(Cc3cc(F)c(F)c(F)c3)c2=O)c1 (centres unmarked)", "pEC50", 4.67),
    ("Cn1cnc(Cn2c(=O)nc(Nc3cc4cn(C)nc4cc3Cl)n(Cc3cc(F)c(F)c(Cl)c3)c2=O)n1", "pEC50", 6.66),
    ("COc1ccc(Nc2nc(=O)n(Cc3cc4c([nH]c3=O)CCC4)c(=O)n2Cc2cc(F)c(F)c(F)c2)cc1", "pEC50", 5.38),
    ("Cn1cc2cc(Nc3nc(=O)n(CC(=O)NC4CCCCC4)c(=O)n3Cc3cc(F)c(F)c(F)c3)c(Cl)cc2n1", "pEC50", 4.37),
    ("Cc1nc2cc(Cl)c(Nc3nc(=O)n(Cc4cc5ccsc5[nH]c4=O)c(=O)n3Cc3cc(F)c(F)c(F)c3)cc2n1C", "pEC50", 5.50),
    ("CCn1cc2cc(Nc3nc(=O)n(-c4cncc(Cl)c4)c(=O)n3Cc3ccc(F)c(C#N)c3)ccc2n1", "pEC50", 6.05),
    ("Cc1cncc(-n2c(=O)nc(Nc3cc4cn(C)nc4cc3Cl)n(Cc3cc(Cl)ccc3C)c2=O)c1", "pEC50", 7.27),
    ("O=c1[nH]cccc1Cn1c(=O)nc(-c2ccccc2)n(Cc2cc(F)c(F)c(F)c2)c1=O", "pEC50", 5.29),
    ("Cc1cncc(-n2c(=O)nc(Nc3ccc4nn(C)cc4c3)n(Cc3cc(F)c(F)c(C#N)c3)c2=O)c1", "pEC50", 6.47),
    ("O=c1[nH]c2ncccc2cc1Cn1c(=O)nc(Nc2cc3cn(CCO)nc3cc2Cl)n(Cc2cc(F)c(F)c(F)c2)c1=O", "pEC50", 5.47),
    ("Cc1ccc(C#N)cc1Cn1c(Nc2ccc3nn(C)cc3c2)nc(=O)n(-c2cncc(Cl)c2)c1=O", "pEC50", 6.72),
    ("Cc1cncc(-n2c(=O)nc(Nc3ccc4nn(CC(F)(F)F)cc4c3)n(Cc3cc(C#N)ccc3Cl)c2=O)c1", "pEC50", 6.33),
    ("Cc1cncc(-n2c(=O)nc(Nc3cc4cn(C)nc4cc3Cl)n(Cc3cc(F)c(F)c(F)c3F)c2=O)c1", "pEC50", 6.71),
    ("Cc1cncc(-n2c(=O)nc(Nc3cc4cn(CC(F)F)nc4cc3Cl)n(Cc3cc(F)c(F)cc3F)c2=O)c1", "pEC50", 6.70),
    ("Cc1cncc(-n2c(=O)nc(Nc3cc4cn(C)nc4cc3Cl)n(Cc3cc(C#N)ccc3C)c2=O)c1", "pEC50", 7.21),
    ("COc1ccc(Nc2nc(=O)n(Cc3cc(N4CCCC4)c[nH]c3=O)c(=O)n2Cc2cc(F)c(F)c(F)c2)cc1", "pEC50", 4.66),
]
